FYI, the data here is from patent US5846525A.

System: chymotrypsin
Assay: Stability of peptide-ion exchange resin complex to enzymatic degradation by chymotrypsin
Assay type: in vitro ADME
Conditions: isolated enzyme chymotrypsin, pH 7, unbound control, read-out: CRA-1 remaining
MEASUREMENT NAME: remaining at 2 h (%)
Answer format: numeric, % implied, no suffix.

Give its remaining at 2 h value. Item: CCCC[C@H](NC(C)=O)C(=O)N[C@@H](CCC(N)=O)C(=O)N[C@@H](Cc1c[nH]cn1)C(=O)N[C@H](Cc1ccccc1)C(=O)N[C@@H](CCCNC(=N)N)C(=O)N[C@H](Cc1c[nH]c2ccccc12)C(=O)NCC(N)=O [CRA-1, Ac-Nle-Gln-His-(D)Phe-Arg-(D)Trp-Gly-NH2]
5.47

###

System: trypsin
Construct: gene PRSS1
Assay: Stability of peptide-ion exchange resin complex to enzymatic degradation by trypsin
Type: in vitro ADME
Settings: isolated enzyme trypsin, pH 7, unbound control, read-out: CRA-1 remaining
MEASUREMENT NAME: remaining at 2 h (%)
Answer format: numeric, % implied, no suffix.

Give its remaining at 2 h value. Item: CCCC[C@H](NC(C)=O)C(=O)N[C@@H](CCC(N)=O)C(=O)N[C@@H](Cc1c[nH]cn1)C(=O)N[C@H](Cc1ccccc1)C(=O)N[C@@H](CCCNC(=N)N)C(=O)N[C@H](Cc1c[nH]c2ccccc12)C(=O)NCC(N)=O [CRA-1, Ac-Nle-Gln-His-(D)Phe-Arg-(D)Trp-Gly-NH2]
2.96
